Below, each entry is listed with its recorded AC50.
- assayedTarget: Prostaglandin G/H synthase 1 (Homo sapiens); also: assay procedure not described here
- Sequence (P23219 whole entry): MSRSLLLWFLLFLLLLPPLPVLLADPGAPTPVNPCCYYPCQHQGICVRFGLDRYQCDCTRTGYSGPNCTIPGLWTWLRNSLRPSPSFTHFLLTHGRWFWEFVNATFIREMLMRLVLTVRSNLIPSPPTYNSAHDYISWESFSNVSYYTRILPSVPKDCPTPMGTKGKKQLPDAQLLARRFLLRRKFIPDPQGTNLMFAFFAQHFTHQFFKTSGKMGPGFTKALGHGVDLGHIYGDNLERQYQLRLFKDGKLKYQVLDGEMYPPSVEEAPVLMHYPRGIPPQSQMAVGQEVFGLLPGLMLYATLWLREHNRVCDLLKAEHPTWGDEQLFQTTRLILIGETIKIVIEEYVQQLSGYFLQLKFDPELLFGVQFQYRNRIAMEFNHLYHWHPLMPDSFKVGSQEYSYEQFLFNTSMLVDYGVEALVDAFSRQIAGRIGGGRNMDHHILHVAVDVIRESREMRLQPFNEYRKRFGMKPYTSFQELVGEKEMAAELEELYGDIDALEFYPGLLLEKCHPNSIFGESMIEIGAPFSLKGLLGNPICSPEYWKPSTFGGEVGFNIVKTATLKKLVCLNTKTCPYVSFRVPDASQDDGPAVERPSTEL
- Type: functional

See these solved cases before continuing.
NC[C@H]1CC[C@H](C(=O)Oc2ccc(CCC(=O)O)cc2)CC1 [CETRAXATE] | > 30 µM
CN[C@@H]1[C@H](O[C@H]2[C@H](O[C@H]3[C@H](O)[C@@H](O)[C@H](NC(=N)N)[C@@H](O)[C@@H]3NC(=N)N)O[C@@H](C)[C@]2(O)CO)O[C@@H](CO)[C@H](O)[C@H]1O [DIHYDROSTREPTOMYCIN] | > 30 µM
COC(=O)[C@@H](N)Cc1ccc(O)c(O)c1 [MELEVODOPA] | > 30 µM
C=C1CC[C@H](O)C/C1=C/C=C1\CCC[C@]2(C)[C@@H]([C@H](C)CCCC(C)C)CC[C@@H]12 [CHOLECALCIFEROL] | 22.9 µM
CC(OCCN1CCCCCC1)(c1ccccc1)c1ccc(Cl)cc1 (stereo not given) [SETASTINE] | > 30 µM

// CC(C(=O)O)c1cccc(Oc2ccccc2)c1 (stereo not given) [FENOPROFEN] : AC50 value = 1.52 µM

So, Cc1cc(C2CCCCC2)n(O)c(=O)c1 [CICLOPIROX] ? Its AC50 was > 30 µM

Noted for O=C(O)Cc1ccccc1Oc1ccc(Cl)cc1Cl [FENCLOFENAC] : its AC50 reads > 30 µM

Origin of measurements: ChEMBL document CHEMBL5291721
